TEST: Cmax in male ICR-CD1 mouse liver at 80 mg/kg, po
Format: ADME, organism-based
MEASURED PARAMETER: Cmax
Be sure to follow the number with its unit.

IN: Consider the compound `O=c1c2cc(F)c(Oc3ccc(OC(F)(F)F)cc3)cc2[nH]c2cc(Cl)cc(F)c12` and give its measured Cmax.
OUT: 7980 ng/mL

====

TEST: AUClast in male ICR-CD1 mouse plasma at 40 mg/kg, po
Assay type: ADME, organism-based
// AUC(0-t) lookup, one value per entry
// note: answer is a bare numeric in ng·h/mL

IN: Consider the molecule `O=c1c2c([nH]c3cc(Oc4ccc(OC(F)(F)F)cc4)c(F)cc13)CCCC2` and give its measured AUC(0-t).
OUT: 167

IN: Okay, and `O=c1c2c([nH]c3cc(Oc4ccc(OC(F)(F)F)cc4)ccc13)CCCC2` ?
OUT: 472

Values were extracted from ChEMBL document CHEMBL6134844.
